# study-target: human insulin receptor (HIR) (human, UniProt P06213)
# test-description: competition
reported-metric: Kd

• HHHHHHKLDQEWAWVQCEVYGRGCPSESFYDWFERQLG [S481] = 1.3 nM
• SLEEEWAQVECEVWGRGCPS [S548] = 4.1 nM
• SLEEEWAQIESEVWGRSESFYDWFERQLG [S573] = 0.036 nM

Below: the item to evaluate.
I am curious: what Kd value has been reported for SIEEEWAQIKCDVWGRCSESFYDWFERQL [S562] ?
0.018 nM
